Recorded Percent Effect for the following compounds
experimentalSystem: Sialic acid-binding Ig-like lectin 9 (Homo sapiens) (UniProt Q9Y336)
Sequence (Q9Y336 whole entry): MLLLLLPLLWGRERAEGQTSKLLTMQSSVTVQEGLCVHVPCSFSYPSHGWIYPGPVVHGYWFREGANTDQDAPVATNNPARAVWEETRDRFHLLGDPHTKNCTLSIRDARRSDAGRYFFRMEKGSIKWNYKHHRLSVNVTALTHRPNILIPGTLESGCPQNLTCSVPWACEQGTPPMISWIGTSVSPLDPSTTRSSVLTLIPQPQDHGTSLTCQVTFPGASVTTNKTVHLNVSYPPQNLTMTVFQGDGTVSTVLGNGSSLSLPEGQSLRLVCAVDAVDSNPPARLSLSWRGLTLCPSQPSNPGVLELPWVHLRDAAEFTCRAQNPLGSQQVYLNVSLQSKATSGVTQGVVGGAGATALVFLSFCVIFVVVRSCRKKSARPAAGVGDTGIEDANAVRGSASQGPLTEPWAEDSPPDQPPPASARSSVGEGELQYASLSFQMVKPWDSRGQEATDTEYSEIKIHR
assayRemarks: Hs-Siglec9 ALPHAscreen SOP 20170721
Design: scale not given: direction of the effect not stated beside the values
runParameters: 10 µM
Respond with the bare value in %.

Some solved entries appear below for comparison.
Please give the documented Percent Effect of CCCc1nc(CN2CCCC(Cn3cncn3)C2)no1 (centres undefined)
-0.585

Indicate its recorded Percent Effect; the compound in question is Cn1ccc(CN2CCC(CCc3ccc(O)cc3)CC2)cc1=O
0.347

Give Percent Effect for the following compound: COc1ccc(Cl)cc1NCC(=O)NCCNc1cnccn1
13.2

Find the measured Percent Effect of CCN1CC2(CC1=O)CN(Cc1ccco1)CCN(C(=O)N(C)C)C2 (centres undefined) and report it.
9.02

// Input: CCc1nc2n(n1)CC(NCc1ncc(-c3ccccc3)o1)CC2 (centres undefined) . Output its Percent Effect only.
5.65

More entries:
Recall and state the measured Percent Effect for CC(NC(=O)NCCCc1n[nH]c(N)c1C#N)c1ccccc1 (centres undefined) .
-3.62

Give the value of Percent Effect reported for the following: CCc1nc(CCNC(=O)Nc2cc(C(N)=O)sc2C)cs1
-2.52

###

experimentalSystem: Sialic acid-binding Ig-like lectin 9 (Homo sapiens) (UniProt Q9Y336)
assayRemarks: Hs-Siglec9 ALPHAscreen SOP 20170721
Parameters: scale not given: direction of the effect not stated beside the values
runParameters: 10 µM
outcomeMeasure: Percent Effect (%)
Write down the numeric answer in % and omit the unit.

Use the examples below as a reference point.
Please look at this molecule and report its Percent Effect: O=C(NCCc1ccncc1)C1CCN(Cc2ccco2)CC1
-3.22

Note Percent Effect for the molecule shown: O=C(c1cnco1)N1CCCC(Cc2cccc3ncccc23)C1 (stereo not drawn)
-0.964

Note down Percent Effect recorded for Cc1ccc(C(=O)NS(=O)(=O)c2cc(Cl)ccc2Cl)c(=O)[nH]1
13.3

Check the records and state Percent Effect for Cc1cc(N(C)C)nc(C2(C)CCCN2C(=O)c2cnccn2)n1 (stereo not drawn)
-5.27

Read off the recorded Percent Effect for COc1cccc(C2CC(=O)Nc3nc(N4CCOCC4)sc32)c1OC (stereo not drawn)
0.0251

More entries:
Specify Percent Effect for CCn1nnc2c1C(COC)CN(C(=O)COc1ccccc1)C2 (stereo not drawn) and stop.
-0.576

Give me measured Percent Effect, please, for this molecule: Cc1cc(=O)n2ncnc2n1CC(O)c1cc(F)ccc1F (stereo not drawn)
-4.45

Report Percent Effect for Cc1nc(CSCCC(=O)NCc2cccnc2N(C)C)cs1
-7.06

###

experimentalSystem: Arginase-2, mitochondrial (Homo sapiens)
assayRemarks: in vitro enzyme assay to detect the production of urea directly proportional to the activity of Arginase II; note: in the data most compounds retested in dose-response had high values
Assay type: functional
Set-up: scale not given: direction of the effect not stated beside the values
runParameters: 33.3 µM
Below is a list of entries, each paired with its recorded Percent Effect value.
Numeric answer only, unit % assumed.

Check Arginase-2, mitochondrial (Homo sapiens) data and give Percent Effect for Cc1cnn(C2CN(CC(O)c3ccc4c(c3)OCCO4)C2)c1 (centres undefined) .
0

Lab note: Arginase-2, mitochondrial (Homo sapiens) assay, enter Percent Effect for CCC(CC)C(CNC(=O)Nc1ccc(C)cc1)N1CCOCC1 (centres undefined) here
-0.76

Give Percent Effect for Cc1noc(C)c1C(=O)NCC(c1ccc(F)cc1)N(C)C (centres undefined) tested on Arginase-2, mitochondrial (Homo sapiens).
0.924

Recall the reported Percent Effect of Cc1cc(C)c(CNC(=O)NCc2ccc3c(c2)CCC3)c(=O)[nH]1 when tested on Arginase-2, mitochondrial (Homo sapiens).
4.6

Fill: Percent Effect (Arginase-2, mitochondrial (Homo sapiens)) for this molecule Cn1c(Cn2cccn2)nnc1C1CCCN(c2ccncc2)C1 (centres undefined)
-1.43

***
Look up and report Percent Effect, with Arginase-2, mitochondrial (Homo sapiens) as system, for O=C(C1CCCc2[nH]ncc21)N1CCCC1 (centres undefined)
-1.24

# return Percent Effect for Cc1ccc(=O)n(CC2(O)CCN(Cc3ccsc3)CC2)n1 , test system: Arginase-2, mitochondrial (Homo sapiens)
3.02

// output Percent Effect; input CCN1CCN(C(=O)C(C)N2CCN(Cc3nccn3C)CC2)CC1 (centres undefined) ; system Arginase-2, mitochondrial (Homo sapiens)
-4.99

For Arginase-2, mitochondrial (Homo sapiens), give the measured Percent Effect of the entry CC(OCC(F)(F)F)C(=O)NCc1ccc(-n2cncn2)nc1 (centres undefined)
-22.5

State measured Percent Effect of the molecule O=C(c1cncc(Br)c1)N1CCC(O)(Cn2ccc3ccncc32)CC1 with Arginase-2, mitochondrial (Homo sapiens).
1.62

###

# reported Percent Effect; entries follow
experimentalSystem: AMP-activated protein kinase, AMPK (Homo sapiens) (UniProt P54646+O43741+P54619+Q9UGJ0+Q9Y478+Q13131+Q9UGI9)
assayRemarks: AMP-dependent Kinase enzyme assay. An in vitro enzyme assay that detects ADP turnover that is directly proportional to AMPK activity. This uses naive AMPK that is activated during the assay with MK-8722
Assay type: functional
Set-up: scale not given: direction of the effect not stated beside the values
runParameters: 30 µM
Number only, in %; omit the unit.

Some molecules with known Percent Effect results, for comparison:
Query Percent Effect for O=C(Cc1ccsc1)N1C[C@@H]2CN(Cc3ccoc3)CCO[C@@H]2C1
4.82

Look up and state reported Percent Effect for Cc1cnn(CCNCC(=O)NCCOc2ccccc2)c1
4.84

Please list Percent Effect recorded for the molecule Cc1cc(-c2cnn(CCNC(=O)c3cccnc3)c2C2CC2)on1
7.97

Read the entry COc1cccc(COCC(O)CN2CC(n3cccn3)C2)c1 (centres undefined) and write its reported Percent Effect.
5.98

***
Give me measured Percent Effect, please, for this molecule: Cc1nnc2n1CCN(C(=O)COCCOc1ccccc1)C2
10

Complete the entry with Percent Effect for O=C(c1ccc(-n2cccn2)nc1)N1CCCN(c2cccnn2)CC1
6.8

Report Percent Effect for Cn1ccc(CN2CCC(Oc3ccccc3)CC2)cc1=O
-0.911

Please give measured Percent Effect of the following entry: Cc1nnn2c1COCC(CNC(=O)c1ccc3[nH]ccc3c1)C2 (centres undefined)
-0.0167

Consider the molecule COc1ccc(CN(C)C(=O)CCC(=O)c2cccs2)c(OC)c1OC . State its measured Percent Effect.
-1.79

Indicate the recorded Percent Effect value for this molecule: CC(C)c1nc(CCNC(=O)NCc2ccnc(N(C)C)c2)cs1
8.79

Using known records, supply Percent Effect for O=C(NCCc1nnc2n1CCC2)NCC1(c2cccc(F)c2)CC1
5.7

For the molecule CCc1ccc(CCC(=O)N2CCOCC2c2ncon2)cc1 (centres undefined) , give its reported Percent Effect.
4.51

Indicate its recorded Percent Effect; the molecule in question is CCCc1nc(CN2CCOC(Cn3cncn3)C2)no1 (centres undefined)
-5.09

Fill in Percent Effect for record Cc1occc1C(=O)N1CCc2c(COCC3CC3)cncc2C1
-0.121

###

Let's look at some compounds and their measured Percent Effect.
experimentalSystem: Arginase-2, mitochondrial (Homo sapiens) (UniProt P78540)
Sequence (P78540 whole entry): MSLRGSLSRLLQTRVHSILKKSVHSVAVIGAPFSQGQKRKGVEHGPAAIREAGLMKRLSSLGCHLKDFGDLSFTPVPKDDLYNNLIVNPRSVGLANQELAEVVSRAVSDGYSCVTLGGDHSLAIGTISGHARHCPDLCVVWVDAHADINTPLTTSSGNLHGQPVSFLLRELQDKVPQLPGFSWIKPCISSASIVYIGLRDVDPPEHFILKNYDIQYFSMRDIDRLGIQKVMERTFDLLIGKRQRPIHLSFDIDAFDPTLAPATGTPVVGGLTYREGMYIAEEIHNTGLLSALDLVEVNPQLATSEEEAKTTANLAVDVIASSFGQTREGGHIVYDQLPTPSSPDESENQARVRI
assayRemarks: in vitro enzyme assay to detect the production of urea directly proportional to the activity of Arginase II; note: in the data most compounds retested in dose-response had high values
Format: functional
Set-up: scale not given: direction of the effect not stated beside the values
runParameters: 33.3 µM
State the answer as a number, implicitly in %.

# count of solved cases: 4
Supply Percent Effect measured with Arginase-2, mitochondrial (Homo sapiens) (UniProt P78540) for Cc1ccc2cc(CNCCCO)c(=O)[nH]c2c1 .
4.41

Give Percent Effect; test system Arginase-2, mitochondrial (Homo sapiens) (UniProt P78540); compound CS(=O)(=O)N1CCC(C(=O)NC(Cc2ccsc2)c2nccs2)CC1 (stereo unspecified)
-1.16

Please report the measured Percent Effect for Cc1cc(C)n(CC2CCCCN2CC(=O)Nc2cccnc2)n1 (stereo unspecified) tested on Arginase-2, mitochondrial (Homo sapiens) (UniProt P78540).
12.5

Param request: Percent Effect | system Arginase-2, mitochondrial (Homo sapiens) (UniProt P78540) | item CCCc1noc(CCC(=O)NC(C)c2nnc3n2CCCCC3)n1 (stereo unspecified)
5.21

---
Report measured Percent Effect on Arginase-2, mitochondrial (Homo sapiens) (UniProt P78540); entry: Cc1ccn(-c2ccccc2NCc2ncc[nH]2)n1
3.18

Lab note: Arginase-2, mitochondrial (Homo sapiens) (UniProt P78540) assay, enter Percent Effect for O=C(O)c1ccn(-c2ccccc2NS(=O)(=O)c2ccccc2)n1 here
2.08

###

The following compounds are listed with their measured Percent Effect values.
experimentalSystem: Proteasome subunit beta (Trypanosoma cruzi) (UniProt O96673)
Sequence (O96673 as listed by the source): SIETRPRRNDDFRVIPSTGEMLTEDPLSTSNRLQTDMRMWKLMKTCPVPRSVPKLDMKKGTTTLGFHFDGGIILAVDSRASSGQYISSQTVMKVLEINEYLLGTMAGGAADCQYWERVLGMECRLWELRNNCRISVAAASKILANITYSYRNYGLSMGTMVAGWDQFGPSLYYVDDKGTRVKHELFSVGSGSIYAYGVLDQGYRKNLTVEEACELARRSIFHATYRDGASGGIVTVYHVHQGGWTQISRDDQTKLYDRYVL
assayRemarks: Trypanosoma cruzi proteasome chymotrypsin-like activity (TcProtChymo) assay. Note: in the data most compounds retested in dose-response had high values.
Type: functional
Parameters: scale not given: direction of the effect not stated beside the values
runParameters: 9.37 µM
Write the value in % as a bare number.

Examples from the recorded data:
Fill in reported Percent Effect for this entry: NCC(c1ccccc1)N1CCc2sccc2C1 (stereo unspecified)
17.6

Please give measured Percent Effect of the following entry: CNC(=O)C(NC(=O)c1nccn2ccnc12)c1ccc(F)c(F)c1 (stereo unspecified)
19

Tell me Percent Effect reported for CC(=O)N1CCC(Cc2cnc(-c3c(C)n[nH]c3C)cn2)C1 (stereo unspecified)
4.67

Provide only the value of recorded Percent Effect for O=C(NCC1CC1)[C@H]1C[C@H]2OCC[C@H]2N(Cc2ccoc2)C1
6.09

New cases:
Provide Percent Effect value for the following compound: Cc1cnn(CC2CCCCN2Cc2nc(N)c3ccccc3n2)c1 (stereo unspecified)
12.2

Tell me its Percent Effect given COc1ncccc1NC(=O)N1CCC(CN2CCOCC2)CC1 as the entry.
7.15

Consider the compound COc1ccc(C2C3=C(COC3=O)Nc3[nH]nc(C)c32)cc1OC (stereo unspecified) and give its recorded Percent Effect.
12.8

In one line, give reported Percent Effect of the entry CC(C)c1n[nH]c(C2CN(C(=O)CCn3ccccc3=O)CCO2)n1 (stereo unspecified) .
2.92
